- PROCEDURE TEXT: Waters ACQUITY UPLC BEH C18, 100 × 2.1 mm, 1.7 µm, 40 °C, 0.28 mL/min, estimated dead time 0.63 min; A: water + 6.5 mM ammonium hydroxide; B: methanol + 6.5 mM ammonium hydroxide; gradient (min/%B) 0/0.5 4/70 4.5/98 5.4/98
- TEST SETTINGS: stereoisomer not certain
PROPERTY LABEL: LC retention time (min)
Express the result in min but write the number alone.

Known LC retention time results, listed for orientation:
[
  {
    "MOLECULE": "O=C(O)c1cc(=O)c2cccc(O)c2[nH]1",
    "READOUT VALUE": 1.67
  },
  {
    "MOLECULE": "CC=C(C)C(=O)NCC(=O)O",
    "READOUT VALUE": 2.16
  },
  {
    "MOLECULE": "CC(=O)C1C(=O)C=C(C)OC1=O (configuration not stated)",
    "READOUT VALUE": 2.04
  },
  {
    "MOLECULE": "COc1ccc2[nH]cc(CC(=O)O)c2c1",
    "READOUT VALUE": 2.72
  },
  {
    "MOLECULE": "O=C(O)CCc1ccc(O)cc1",
    "READOUT VALUE": 2.5
  }
]

Now for the molecule whose LC retention time we want.
**Query** Supply recorded LC retention time for CNCC(O)c1ccc(O)cc1 (configuration not stated) here.
**Result** 1.96

====

- PROCEDURE TEXT: RP, Waters ACQUITY UPLC HSS C18, 100 × 2.1 mm, 1.7 µm, 40 °C, 0.35 mL/min, estimated dead time 0.63 min; A: water + 0.1% formic acid; B: methanol + 0.1% formic acid; gradient (min/%B) 0/0.5 4/70 4.5/98 5.4/98
- TEST SETTINGS: stereoisomer not certain
PROPERTY LABEL: LC retention time (min)
Express the result in min but write the number alone.

Known LC retention time results, listed for orientation:
[
  {
    "MOLECULE": "CCOC(=O)C(=O)C(C)C(=O)OCC (centres undefined)",
    "LC retention time [min]": 4.56
  },
  {
    "MOLECULE": "Nc1ncnc2c1ncn2C1CC(O)C(COP(=O)(O)O)O1 (centres undefined)",
    "LC retention time [min]": 1.56
  }
]

Now for the molecule whose LC retention time we want.
**Query** Supply recorded LC retention time for CC(=O)NC(CCC(=O)O)C(=O)O (centres undefined) here.
**Result** 1.63

====

- PROCEDURE TEXT: Waters ACQUITY UPLC BEH C18, 100 × 2.1 mm, 1.7 µm, 40 °C, 0.28 mL/min, estimated dead time 0.63 min; A: water + 6.5 mM ammonium hydroxide; B: methanol + 6.5 mM ammonium hydroxide; gradient (min/%B) 0/0.5 4/70 4.5/98 5.4/98
- TEST SETTINGS: stereoisomer not certain
PROPERTY LABEL: LC retention time (min)
Express the result in min but write the number alone.

**Query** Supply recorded LC retention time for NC(CCO)C(=O)O (stereo not drawn) here.
**Result** 0.762

**Query** Supply recorded LC retention time for `O=Cc1ccc(O)cc1` here.
**Result** 2.36

**Query** Supply recorded LC retention time for CSCCC(NC(C)=O)C(=O)O (stereo not drawn) here.
**Result** 2.07

**Query** Supply recorded LC retention time for CCCCCCCC(=O)OC(CC(=O)[O-])C[N+](C)(C)C (stereo not drawn) here.
**Result** 5.1

**Query** Supply recorded LC retention time for `O=C(O)CCc1cccc(O)c1` here.
**Result** 2.24

Where do these numbers come from? They come from the RepoRT retention time repository (doi:10.1038/s41586-021-03707-9).
